biological target: UniProt Q8I259; test: IC50 for competition of protein binding to Kinobeads; details: assay detail: Kinobeads competition in P. falciparum blood-stage lysate;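 also: native unpurified kinases from lysate captured on beads bearing immobilized kinase inhibitors, with bead-bound kinases quantified by mass spectrometry across compound doses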
pIC50: −log10 of the molar value.

compound: O=c1[nH]c2ccc(Cl)cc2c(NC2CN3CCC2CC3)c1-c1nc2ccccc2[nH]1 (stereo unspecified)
pIC50: < 4.70

---

target: UniProt Q8I3T1; experiment: IC50 for competition of protein binding to Kinobeads; conditions: assay detail: Kinobeads competition in P. falciparum blood-stage lysate
experimental-endpoint: IC50

compound: O=c1[nH]c2ccc(Cl)cc2c(NC2CN3CCC2CC3)c1-c1nc2ccccc2[nH]1 (stereo unspecified)
result: > 20 µM

---

biological target: UniProt Q8ILQ8; experiment: IC50 for competition of protein binding to Kinobeads; conditions: assay detail: Kinobeads competition in P. falciparum blood-stage lysate
pIC50: −log10 of the molar value.
experimental-endpoint: pIC50

compound: O=c1[nH]c2ccc(Cl)cc2c(NC2CN3CCC2CC3)c1-c1nc2ccccc2[nH]1 (stereo unspecified) [CHIR-124]
target-system: UniProt Q8ILQ8
experimental-endpoint: pIC50
result: < 4.70

---

molecular target: UniProt Q8IM71; test: IC50 for competition of protein binding to Kinobeads; conditions: assay detail: Kinobeads competition in P. falciparum blood-stage lysate

compound: O=c1[nH]c2ccc(Cl)cc2c(NC2CN3CCC2CC3)c1-c1nc2ccccc2[nH]1 (stereo unspecified)
target-system: UniProt Q8IM71
IC50: > 20 µM

---

target: UniProt Q8IHT9; test: IC50 for competition of protein binding to Kinobeads; conditions: assay detail: Kinobeads competition in P. falciparum blood-stage lysate
pIC50: −log10 of the molar value.
experimental-endpoint: pIC50

compound: O=c1[nH]c2ccc(Cl)cc2c(NC2CN3CCC2CC3)c1-c1nc2ccccc2[nH]1 (stereo unspecified)
result: < 4.70

---

target: UniProt Q8IJD0; test: IC50 for competition of protein binding to Kinobeads; details: assay detail: Kinobeads competition in P. falciparum blood-stage lysate

molecule: O=c1[nH]c2ccc(Cl)cc2c(NC2CN3CCC2CC3)c1-c1nc2ccccc2[nH]1 (stereo unspecified) [CHIR-124]
IC50: > 20 µM

---

target: UniProt Q8IIA2; assay: IC50 for competition of protein binding to Kinobeads; conditions: assay detail: Kinobeads competition in P. falciparum blood-stage lysate
experimental-endpoint: IC50

compound: O=c1[nH]c2ccc(Cl)cc2c(NC2CN3CCC2CC3)c1-c1nc2ccccc2[nH]1 (stereo unspecified)
target-system: UniProt Q8IIA2
result: > 20 µM

---

molecular target: UniProt O96153; experiment: IC50 for competition of protein binding to Kinobeads; settings: assay detail: Kinobeads competition in P. falciparum blood-stage lysate
experimental-endpoint: IC50

compound: O=c1[nH]c2ccc(Cl)cc2c(NC2CN3CCC2CC3)c1-c1nc2ccccc2[nH]1 (stereo unspecified)
result: > 20 µM

---

molecular target: UniProt C6KTB4; assay: IC50 for competition of protein binding to Kinobeads; conditions: assay detail: Kinobeads competition in P. falciparum blood-stage lysate

compound: O=c1[nH]c2ccc(Cl)cc2c(NC2CN3CCC2CC3)c1-c1nc2ccccc2[nH]1 (stereo unspecified) [CHIR-124]
target-system: UniProt C6KTB4
IC50: > 20 µM

---

target: UniProt Q8II79; assay: IC50 for competition of protein binding to Kinobeads; details: assay detail: Kinobeads competition in P. falciparum blood-stage lysate
experimental-endpoint: IC50

compound: O=c1[nH]c2ccc(Cl)cc2c(NC2CN3CCC2CC3)c1-c1nc2ccccc2[nH]1 (stereo unspecified)
result: > 20 µM
